B1: WDFY1 (parent)
chain: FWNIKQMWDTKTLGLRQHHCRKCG

Variants of: B1
protocol.notes: protein stability index of a GFP-peptide fusion (GPS, HEK-293T) (PSI 1-6); higher = more stable;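 note: lentivirally expressed fusions sorted by FACS into six bins by GFP to DsRed ratio, PSI derived from sequencing read proportions per bin multiplied by bin number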
conditions: c terminus: a fixed tail appended
Catalogue of variants with associated protein stability index
measured.endpoint: protein stability index

seq	observed.value
FWNIKAMWDTKTLGLRQHHCRKCG [Q6A]	1.9
FWNIKQMWDTKTLFLRQHHCRKCG [G14F]	2.78
FWNIKQAWDTKTLGLRQHHCRKCG [M7A]	1.89
FWNIKQMWDTKTLGFRQHHCRKCG [L15F]	1.91
FLNIKQMWDTKTLGLRQHHCRKCG [W2L]	2.47
FWNIKQMWDTKTLGLAQHHCRKCG [R16A]	1.45
FWNIKQMWDTKTLGLRQHHCRPCG [K22P]	1.98
FWNIKQMWDTKTLGLRQHDCRKCG [H19D]	2.21
FWNIKQMWFTKTLGLRQHHCRKCG [D9F]	1.7
FWNIKQMWDTKTLGLRQHPCRKCG [H19P]	2.66
FWNITQMWDTKTLGLRQHHCRKCG [K5T]	1.97
FWNIKQMWDTKTLGYRQHHCRKCG [L15Y]	1.98
FWNIKWMWDTKTLGLRQHHCRKCG [Q6W]	1.79
FWFIKQMWDTKTLGLRQHHCRKCG [N3F]	1.96
FWNIKQMWDTKALGLRQHHCRKCG [T12A]	2.29
FWNIKQIWDTKTLGLRQHHCRKCG [M7I]	2.15
YWNIKQMWDTKTLGLRQHHCRKCG [F1Y]	2.02
FWNIKQMWCTKTLGLRQHHCRKCG [D9C]	1.53
FWNIKQMWDTKTLGLRQHHCRKCH [G24H]	2.13
FWNIKQMWDIKTLGLRQHHCRKCG [T10I]	2.31
FWNIKQLWDTKTLGLRQHHCRKCG [M7L]	2.39
FWNIKFMWDTKTLGLRQHHCRKCG [Q6F]	2.36

Reference for the values: the supplement of paper PMC10567573
